ASSAY_SYSTEM: T1, human IL4 (human, UniProt P05112 25-153, biotinylated in the SPR and competition assays (sites not given))
T1 sequence: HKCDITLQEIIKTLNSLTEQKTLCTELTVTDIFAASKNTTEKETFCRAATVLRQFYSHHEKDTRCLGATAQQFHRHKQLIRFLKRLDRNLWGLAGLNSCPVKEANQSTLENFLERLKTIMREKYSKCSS
EXPERIMENTAL_PROTOCOL: cell-based or functional assay

BINDER	A549/TARC IL4 IC50 / nM
C06_28E5_V1_C01_6G9_V1 (designed binder, bispecific IL4/IL13 ankyrin repeat protein with (GGGGS)4 linker; also called bispecific AR protein) DLGKKLLEAARAGQDDEVRILMANGADVNAADDSGITPLHLAAEDGHLEIVEVLLKAGADVNAQDNLGDTPLHLAAWTGHLEIVEVLLKAGADVNAYDISGITPLHLAAFYGHLEIVEVLLKHGADVNAQDKFGKTAFDISIDNGNEDLAEILQKLNGGGGSGGGGSGGGGSGGGGSDLDKKLLEAARAGQDDEVRILMANGADVNARDSYGSTPLHLAAREGHLEIVEVLLKYGADVNAADFIGDTPLHLAAYRGHLEIVEVLLKYGADVNASDITGETPLHLAAQIGHLEIVEVLLKHGADVNAQDKFGKTAFDISIDNGNEDLAEILQKLN	0.039
